Test: chemical recovery into PDMS from spiked human plasma; higher = better extraction
Settings: pooled human plasma; extraction method: PES with PDMS; equilibration time (d): 3
Provide the recorded chemical recovery into PDMS for the entries that follow.

Nc1ccc(-c2ccc(N)c(Cl)c2)cc1Cl [3,3'-Dichlorobenzidine]    3.04%
CCCCCCCCn1sc(Cl)c(Cl)c1=O [DCOIT]    3.03%
CC(=O)[C@@]1(O)CC[C@H]2[C@@H]3C=C(Cl)C4=CC(=O)[C@@H]5C[C@@H]5[C@]4(C)[C@H]3CC[C@@]21C [Cyproterone]    39%
Cc1ccc(-c2cc(C(F)(F)F)nn2-c2ccc(S(N)(=O)=O)cc2)cc1 [Celecoxib]    6.98%
CCOC(=O)c1cn2nc(OP(=S)(OCC)OCC)cc2nc1C [Pyrazophos]    40.5%

Give measured chemical recovery into PDMS for every item shown.
1. COCCN(C(=O)CS(=O)(=O)O)c1c(C)cccc1C [Dimethachlor ESA]
2. Cc1ccccc1N [o-Toluidine]

["0.000445%", "0.533%"]
